Literature survey of IC50 (system: UniProt:P34998).
MEASUREMENT KIND: IC50 (nM)

{"COMPOUND": "CCCN(CCOC)c1c(CC)nn2c(-c3ccc(Cl)cc3Cl)cccc12", "MEASUREMENT KIND": "IC50", "ENDPOINT RESULT": 210}
{"COMPOUND": "CCCN(CC1CCOC1)c1c(OCC)nn2c(-c3c(OC)cc(COC)cc3OC)csc12 (centres unmarked)", "MEASUREMENT KIND": "IC50", "ENDPOINT RESULT": 51}
{"COMPOUND": "CCCN(c1cccnc1)c1c(OC)nn2c(-c3c(OC)cc(COC)cc3OC)csc12", "MEASUREMENT KIND": "IC50", "ENDPOINT RESULT": 36}
{"COMPOUND": "COCc1cc(OC)c(-c2csc3c(N(CC4CCOC4)CC4CC(F)(F)C4)c(OC)nn23)c(OC)c1 (centres unmarked)", "MEASUREMENT KIND": "IC50", "ENDPOINT RESULT": 95}
{"COMPOUND": "COCc1cc(OC)c(-c2csc3c(N(CC4CC4C)C4CCOCC4)c(OC)nn23)c(OC)c1 (centres unmarked)", "MEASUREMENT KIND": "IC50", "ENDPOINT RESULT": 82}
{"COMPOUND": "CCc1nn2c(-c3c(OC)cc(COC)cc3OC)c(C)oc2c1N(CC1CC1)CC1CCOC1 (centres unmarked)", "MEASUREMENT KIND": "IC50", "ENDPOINT RESULT": 77}
{"COMPOUND": "CCCN(c1c(OC)nn2c(-c3c(OC)cc(COC4CCC4)cc3OC)csc12)C1CCOCC1", "MEASUREMENT KIND": "IC50", "ENDPOINT RESULT": 36}
{"COMPOUND": "COCc1cc(OC)c(-c2csc3c(N(CCCF)Cc4ccccn4)c(OC)nn23)c(OC)c1", "MEASUREMENT KIND": "IC50", "ENDPOINT RESULT": 75}
